target: V115^3.33A D2R (Homo sapiens, UniProt P14416, V115A); experiment: biochemical
QUANTITY_MEASURED: Ki (µM)
Give your result in µM as a bare value.

Indicate its recorded Ki; the molecule in question is CCCN(CCC)CCc1cccc2c1CC(=O)N2
18.6

---

target: I183^ECL2A D2R (Homo sapiens, UniProt P14416, I183A); experiment: biochemical
QUANTITY_MEASURED: Ki

Indicate its recorded Ki; the compound in question is CCCN(CCC)CCc1cccc2c1CC(=O)N2 [ropinirole]
3.16 µM

---

biological target: dopamine D2 receptor (D2R; D2SR; SNAP-D2SR) (Homo sapiens, UniProt P14416, F110A); experiment: biochemical
Sequence (P14416 1-414 isoform P14416-2 F110A): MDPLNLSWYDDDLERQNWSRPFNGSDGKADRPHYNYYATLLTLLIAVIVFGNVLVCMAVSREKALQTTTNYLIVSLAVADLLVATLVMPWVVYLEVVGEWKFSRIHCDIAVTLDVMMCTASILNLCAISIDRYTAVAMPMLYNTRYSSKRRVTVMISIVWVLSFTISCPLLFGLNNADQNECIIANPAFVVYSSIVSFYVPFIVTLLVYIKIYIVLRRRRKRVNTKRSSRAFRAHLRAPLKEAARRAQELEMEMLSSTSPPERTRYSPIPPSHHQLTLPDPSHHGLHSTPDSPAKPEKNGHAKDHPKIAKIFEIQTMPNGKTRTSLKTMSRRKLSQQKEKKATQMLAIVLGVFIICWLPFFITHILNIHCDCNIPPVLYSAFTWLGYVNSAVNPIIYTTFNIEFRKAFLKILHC
QUANTITY_MEASURED: pKi
The value called pKi is obtained by taking minus log10 of the concentration in mol/L.

Print dopamine D2 receptor (D2R; D2SR; SNAP-D2SR) (Homo sapiens, UniProt P14416, F110A) pKi for CCCN(CCC)CCc1cccc2c1CC(=O)N2 .
4.37

---

For each entry below, report its pKi value.
target: dopamine D2 receptor (D2R; D2SR; SNAP-D2SR) (Homo sapiens, UniProt P14416); experiment: [3H]spiperone competition binding
Sequence (P14416 1-414 isoform P14416-2): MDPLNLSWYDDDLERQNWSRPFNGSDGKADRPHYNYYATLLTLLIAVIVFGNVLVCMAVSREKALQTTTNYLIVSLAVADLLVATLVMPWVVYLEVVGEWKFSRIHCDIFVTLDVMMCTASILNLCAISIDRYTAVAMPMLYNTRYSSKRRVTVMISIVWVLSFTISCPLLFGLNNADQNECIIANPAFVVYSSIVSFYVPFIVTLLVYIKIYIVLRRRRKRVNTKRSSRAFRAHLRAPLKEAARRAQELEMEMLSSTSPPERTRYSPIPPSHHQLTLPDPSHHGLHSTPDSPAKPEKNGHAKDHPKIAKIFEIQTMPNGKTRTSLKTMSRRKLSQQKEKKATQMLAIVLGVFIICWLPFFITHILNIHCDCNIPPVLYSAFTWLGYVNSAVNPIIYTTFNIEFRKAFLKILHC
The value called pKi is obtained by taking minus log10 of the concentration in mol/L.

Print dopamine D2 receptor (D2R; D2SR; SNAP-D2SR) (Homo sapiens, UniProt P14416) pKi for CCCN(CCC)CCc1cccc2c1CC(=O)N2 .
5.18

Print dopamine D2 receptor (D2R; D2SR; SNAP-D2SR) (Homo sapiens, UniProt P14416) pKi for CCCCN1CCN(c2cccc(Cl)c2Cl)CC1 .
8.30

Print dopamine D2 receptor (D2R; D2SR; SNAP-D2SR) (Homo sapiens, UniProt P14416) pKi for COCCCCN1CCN(c2cccc(Cl)c2Cl)CC1 .
7.70

Print dopamine D2 receptor (D2R; D2SR; SNAP-D2SR) (Homo sapiens, UniProt P14416) pKi for Clc1cccc(N2CCNCC2)c1Cl .
6.24

Print dopamine D2 receptor (D2R; D2SR; SNAP-D2SR) (Homo sapiens, UniProt P14416) pKi for CCCCN1CCN(c2ccccc2OC)CC1 .
7.03

Print dopamine D2 receptor (D2R; D2SR; SNAP-D2SR) (Homo sapiens, UniProt P14416) pKi for CCCN1CCN(c2cccc(Cl)c2Cl)CC1 .
7.74

---

molecular target: E181^ECL2A D2R (Homo sapiens, UniProt P14416, E181A); test: biochemical
Sequence (P14416 whole entry E181A): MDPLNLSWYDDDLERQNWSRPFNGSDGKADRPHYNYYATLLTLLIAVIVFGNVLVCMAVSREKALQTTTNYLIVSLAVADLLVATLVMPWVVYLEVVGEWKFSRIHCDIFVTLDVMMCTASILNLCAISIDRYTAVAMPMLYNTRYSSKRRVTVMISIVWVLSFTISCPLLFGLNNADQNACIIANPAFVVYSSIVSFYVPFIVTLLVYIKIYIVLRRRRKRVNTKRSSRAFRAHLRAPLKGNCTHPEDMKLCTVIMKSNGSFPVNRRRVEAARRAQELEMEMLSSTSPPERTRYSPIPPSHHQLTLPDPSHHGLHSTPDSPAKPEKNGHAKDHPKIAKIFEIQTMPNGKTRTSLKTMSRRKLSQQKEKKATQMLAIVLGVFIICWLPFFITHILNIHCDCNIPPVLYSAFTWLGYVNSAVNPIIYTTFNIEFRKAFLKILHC
QUANTITY_MEASURED: Ki (µM)
Give your result in µM as a bare value.

Print E181^ECL2A D2R (Homo sapiens, UniProt P14416, E181A) Ki for CCCN(CCC)CCc1cccc2c1CC(=O)N2 .
3.02

---

target: S197^5.46A D2R (Homo sapiens, UniProt P14416, S197A); test: biochemical
Sequence (P14416 whole entry S197A): as the sequence (P14416 whole entry E181A) above, with A181E, S197A counted along it
QUANTITY_MEASURED: Ki (µM)
Give your result in µM as a bare value.

Indicate its recorded Ki; the compound in question is CCCN(CCC)CCc1cccc2c1CC(=O)N2
8.51
